- protocol_text: Solubility in water
- Format: physicochemical
- setup_conditions: water at 20° C.
quantity: solubility

What value of solubility has been reported for the following molecule? CN/C(=N\[N+](=O)[O-])NCc1cnc(Cl)s1
≤ 300 µg/mL

Values were extracted from patent US20010014347A1.
